System: NCI-H522 lung
ASSAY_NOTES: NCI tumour cell line growth inhibition, 48 h
Label NO if TGI falls below 50 µM; label YES in every other case.

Check out these entries, answers already filled in.
compound="CC1=NN(C(=O)CC(=O)Nc2cccc(C)c2)C(=O)C1N=Nc1ccc(S(=O)(=O)c2ccc(N=NC3C(=O)N(C(=O)CC(=O)Nc4cccc(C)c4)N=C3C)cc2)cc1 (stereo not given)" target="NCI-H522 lung" cat=YES
compound=CNCCCNC1(c2cc3ccccc3s2)CCCCC1 target="NCI-H522 lung" cat=NO
compound=Cc1coc2c1C(=O)C(=O)c1c-2ccc2c1CCCC2(C)C target="NCI-H522 lung" cat=NO

Does TGI meet or surpass 50 µM for C/C(=C\CCc1ccsc1)CC/C=C(\C)CCCN1CCC(CO)CC1 ?
NO

Does TGI meet or surpass 50 µM for O=C(Cc1ccccc1)NC(c1ccc(Cl)cc1)c1c(O)ccc2ccccc12 (stereo not given) ?
NO

Does TGI meet or surpass 50 µM for CCCC1=C(C(=O)OCC)C(c2ccccc2OC)C(C#N)=C(N)O1 (stereo not given) ?
YES

Does TGI meet or surpass 50 µM for COc1cc(C2CC(c3ccccc3)=NN2C(C)=O)cc(OC)c1OC (stereo not given) ?
YES

Does TGI meet or surpass 50 µM for O=C1C(=c2cc3c(c4ccccc24)=NC24CCCCC2C(c2ccccc2)C=C(c2ccccc2)N34)C(=O)c2ccccc21 (stereo not given) ?
NO

Does TGI meet or surpass 50 µM for NC(=O)Nc1ccc(C(=O)NCCCNC(=O)c2ccc(NC(N)=O)cc2)cc1 ?
YES

---

Test system: SK-MEL-28 melanoma
ASSAY_NOTES: NCI tumour cell line growth inhibition, 48 h
Measured TGI values are reported for all entries that follow.

# input molecule: CC(=O)OC[C@@]1(C)[C@@H]2[C@@H]3[C@@]4(CO[C@]3(C)C(=O)[C@@]3(O)C[C@H](C)[C@H](OC(C)=O)[C@@H]3[C@H]4OC(C)=O)[C@H](OC(=O)c3ccccc3)C[C@@H]21 ; wanted: its TGI
> 100 µM

# input molecule: CCCNC(=O)Cn1c(C)cc2ccccc21 ; wanted: its TGI
> 100 µM

# input molecule: COc1cc(/C=C2\C(=O)N(c3ccccc3)c3ccccc32)cc(OC)c1OC ; wanted: its TGI
18.4 µM

# input molecule: CC(C)(C)OC(=O)CC(NC(=O)OC(C)(C)C)C(=O)NC(C(=O)O)C(O)c1ccccc1 (configuration not stated) ; wanted: its TGI
> 100 µM

# input molecule: C=C(Br)C(C)(Br)CCC(Br)C(C)(C)Br (configuration not stated) ; wanted: its TGI
46.3 µM

# input molecule: CS(=O)(=O)c1ccc(Oc2cc(F)cc(C#N)c2)c2c1[C@H](O)C(F)(F)C2 ; wanted: its TGI
> 100 µM

# input molecule: O=C1N=NC(=O)N1c1cc(C(F)(F)F)cc(C(F)(F)F)c1 ; wanted: its TGI
44.3 µM

---

Test system: UO-31 renal
ASSAY_NOTES: NCI tumour cell line growth inhibition, 48 h
MEASUREMENT_LABEL: TGI

Recorded TGI, per entry:
molecule=Clc1ccc(C2=NN[C@H](c3cn(-c4ccccc4)nc3-c3ccccc3)C2)cc1 measurement_label=TGI measured="> 100 µM"
molecule=Cc1cc(O)c(C=NC(=S)c2ccccc2)c(=O)o1 measurement_label=TGI measured="> 100 µM"
molecule="CNC(=O)C1CCCN1C(=O)C(Cc1cnc[nH]1)NC(=O)C1CCC(=O)N1 (stereo not given)" measurement_label=TGI measured="> 100 µM"

Under UO-31 renal: TGI value of COc1ccc2cc(Cn3cc[n+](Cc4ccc5ccccc5c4)c3)ccc2c1 ?
32.1 µM

Under UO-31 renal: TGI value of Cn1c(=O)cc(N=Nc2ccc(Cl)c(Cl)c2)[nH]c1=O ?
> 100 µM

Under UO-31 renal: TGI value of NCCCNCCSSC/C=C\CSSCCNCCCN ?
> 100 µM

Under UO-31 renal: TGI value of Cc1c(-c2nnc(-c3ccc(F)cc3)o2)nnn1-c1ccnc2c(C(F)(F)F)cccc12 ?
> 100 µM

Under UO-31 renal: TGI value of NC(=O)CCC(CCC(N)=O)(CCC(N)=O)[N+](=O)[O-] ?
> 100 µM

Under UO-31 renal: TGI value of C[C@H](N[C@H]1CCC[C@]1(O)C#Cc1ccc2c(c1)OCO2)c1ccccc1 ?
> 25 µM

Under UO-31 renal: TGI value of COc1ccccc1/C=C/c1c(N)ncnc1Nc1cccc(Cl)c1 ?
57.1 µM

---

Measured TGI values are reported for all entries that follow.
Test system: MDA-MB-231 breast
ASSAY_NOTES: NCI tumour cell line growth inhibition, 48 h
Write down the numeric answer in µM and omit the unit.

# input compound: N#Cc1c(-c2cccc(Cl)c2)cc(-c2ccc(Cl)cc2)nc1N ; wanted: its TGI
32

# input compound: CN(C)CCNC1=CC(=O)c2nc3ccccc3c3ccnc1c23 ; wanted: its TGI
16

# input compound: COc1ccc(-c2nc(N3CCOCC3)c3sc(CN(C)c4ncc(C(=O)NO)cn4)cc3n2)cn1 ; wanted: its TGI
0.331

# input compound: O=C1/C(=C/c2ccccc2F)CN(C(=O)C(Cl)Cl)C/C1=C\c1ccccc1F ; wanted: its TGI
1.58

# input compound: CN=C(N)/N=C(\N)Nc1cc2ccccc2c2ccccc12 ; wanted: its TGI
26.2

# input compound: O=C1/C(=C/c2ccc(Cl)cc2)N=C(c2ccccc2)N1c1nc2c(Cl)cc(Cl)cc2s1 ; wanted: its TGI
92.3

---

Tested on: HCT-15 colon
ASSAY_NOTES: NCI tumour cell line growth inhibition, 48 h
Measured TGI values are reported for all entries that follow.

molecule=C(=NCCCN1CCN(CCCN=Cc2cccc3ccccc23)CC1)c1cccc2ccccc12 measurement_label=TGI measured="> 100 µM"
molecule=NCCCCN(CCCN)Cc1ccc2ccccc2c1 measurement_label=TGI measured="> 100 µM"
molecule="CC(C)(C)C1(O)C=C(O)C(=O)N1NC(=O)c1ccccc1Nc1ccccc1 (stereo not drawn)" measurement_label=TGI measured="> 100 µM"

# input molecule: OCCCc1cc(O)c2c(c1)C(CO)C(c1ccc(O)c(O)c1)O2 (stereo not drawn) ; wanted: its TGI
> 100 µM

# input molecule: O=C1C(c2c(O)[nH]c3ccccc23)=Nc2ccc(Br)cc21 ; wanted: its TGI
> 100 µM

# input molecule: CC(C)n1c(=O)[nH]n(-c2ccccc2)c1=O ; wanted: its TGI
> 100 µM

# input molecule: CC1OC(n2c3ccccc3c3c4c(c5c6ccccc6[nH]c5c32)C(=O)N(CCN2CCOCC2)C4=O)CC(O)C1O (stereo not drawn) ; wanted: its TGI
13.5 µM

# input molecule: Cc1cn([C@H]2C[C@@H]3[C@@H](COC(CCl)N3O)O2)c(=O)[nH]c1=O (stereo partly drawn) ; wanted: its TGI
> 100 µM

---

System: HOP-18 NSCLC
ASSAY_NOTES: NCI tumour cell line growth inhibition, 48 h
MEASUREMENT_LABEL: TGI

Recorded TGI, per entry:
compound=Cc1c2cc[n+](C)cc2c(C)c2c1[nH]c1ccc(Cl)cc12 measurement_label=TGI measured="22.7 µM"
compound="COC(=O)C1=C(c2ccc3c(c2)OCO3)OC(c2ccc3c(c2)OCO3)C1 (centres undefined)" measurement_label=TGI measured="> 100 µM"
compound="CN(C)C1=NC2=S(SC(Nc3ccccc3)=N2)S1 (centres undefined)" measurement_label=TGI measured="91.4 µM"
compound="CC1=NC(C(C)C)C(=O)O1 (centres undefined)" measurement_label=TGI measured="> 100 µM"
compound=Brc1ccccc1C=NC12CC3CC(CC(C3)C1)C2 measurement_label=TGI measured="> 100 µM"
compound=N#CCCOCN(CO)c1nc(N(CO)COCCC#N)nc(N(CO)COCCC#N)n1 measurement_label=TGI measured="59.6 µM"
compound=COc1ccc(C(=O)CC(=O)C(=O)Nc2ccc(C)c(C)c2)cc1 measurement_label=TGI measured="> 100 µM"
compound=CC1=CC(=O)c2c(C=O)c(O)c(O)c(C(C)C)c2C1=O measurement_label=TGI measured="58 µM"

Under HOP-18 NSCLC: TGI value of CC(C(=O)O)/C(=C\c1ccc2c(c1)OCO2)C(=O)O (centres undefined) ?
> 100 µM

---

System: SK-MEL-5 melanoma
ASSAY_NOTES: NCI tumour cell line growth inhibition, 48 h
Measured TGI values are reported for all entries that follow.

Recorded TGI, per entry:
compound=NC(=O)Nc1c([N+](=O)[O-])cc(C(F)(F)F)cc1[N+](=O)[O-] target="SK-MEL-5 melanoma" measurement_label=TGI measured="> 100 µM"
compound="CC1C2(C)OC(=N)C(C#N)(C(C)O2)C1(C#N)C#N (stereo unspecified)" target="SK-MEL-5 melanoma" measurement_label=TGI measured="25.8 µM"
compound="COc1ccc2c(c1)CCN1CCCc3ccc(OC)cc3C21 (stereo unspecified)" target="SK-MEL-5 melanoma" measurement_label=TGI measured="> 100 µM"
compound=CC(=O)O[C@H]1CC[C@@]2(C)C(=C[C@H](c3ccc(O)cc3)[C@H]3[C@@H]4CC[C@H](OC(C)=O)[C@@]4(C)CC[C@@H]32)C1 target="SK-MEL-5 melanoma" measurement_label=TGI measured="23.8 µM"

As a next step, examine the compound that follows.
# input compound: O=C(O)CP(=O)(O)O ; wanted: its TGI
> 100 µM

Measured values drawn from PubChem BioAssay (NCI) for this set.
